For each of the molecules below, state its LD50.
system: Colinus virginianus; conditions: acute; oral; mortality

# molecule, LD50
records = [
    ("OC[C@H]1OC(O[C@H]2[C@H](O)[C@@H](CO)OC(O[C@H]3[C@H](O)[C@@H](CO)OC(O)[C@@H]3O)[C@@H]2O)[C@H](O)[C@@H](O)[C@@H]1O (some centres undefined) [Laminaran]", "> 1700 mg/kg-day"),
]

Quick one: give me LD50 for each item below, same order please.
1. CC1=CC(=O)CC(C)(C)[C@@]1(O)/C=C/C(C)=C\C(=O)O [(+)-(S)-Abscisic acid]
2. CSSC [Methyl disulfide]
3. CC[N+](CC)(CC(=O)Nc1c(C)cccc1C)Cc1ccccc1.O=C([O-])c1ccccc1 [Denatonium benzoate]

Result:
> 2250 mg/kg-day
342 mg/kg
196 mg/kg

This collection of values is drawn from EPA's ToxValDB 9.5.
